- assay-system: G-protein coupled bile acid receptor 1 (Homo sapiens, UniProt Q8TDU6)
- Sequence (Q8TDU6 whole entry): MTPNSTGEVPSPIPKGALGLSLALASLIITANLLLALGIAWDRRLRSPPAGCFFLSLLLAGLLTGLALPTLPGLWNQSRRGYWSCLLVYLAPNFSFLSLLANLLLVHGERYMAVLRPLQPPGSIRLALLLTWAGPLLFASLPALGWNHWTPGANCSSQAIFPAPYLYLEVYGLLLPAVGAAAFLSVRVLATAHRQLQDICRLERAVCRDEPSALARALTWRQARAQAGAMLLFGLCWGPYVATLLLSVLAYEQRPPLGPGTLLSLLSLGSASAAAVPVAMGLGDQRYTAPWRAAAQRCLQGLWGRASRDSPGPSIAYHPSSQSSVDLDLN
- test-summary: Positive allosteric modulator activity at human TGR5 expressed in HEK293T cells assessed as increase in cAMP accumulation incubated for 1 hr at 37 degC and further incubated for 1 hr at room temperature by glosensor cAMP accumulation assay
For each record, write down the corresponding EC50.
One number for each entry, in µM.

For orientation, consider the following solved cases.
{"input-smiles": "COC(=O)CC[C@@H](C)[C@H]1CC[C@H]2[C@@H]3[C@H](OC)C[C@@H]4C[C@H](O)CC[C@]4(C)[C@H]3CC(=O)[C@]12C", "assay-system": "G-protein coupled bile acid receptor 1 (Homo sapiens, UniProt Q8TDU6)", "u": "µM", "EC50": 5.3}
{"input-smiles": "CO[C@@H]1C[C@@H]2C[C@H](O)CC[C@]2(C)[C@H]2C[C@H](O)[C@]3(C)[C@@H]([C@H](C)CCC(=O)Oc4cccc5ccccc45)CC[C@H]3[C@H]12", "assay-system": "G-protein coupled bile acid receptor 1 (Homo sapiens, UniProt Q8TDU6)", "u": "µM", "EC50": 48.5}
{"input-smiles": "CO[C@@H]1C[C@@H]2C[C@H](O)CC[C@]2(C)[C@H]2C[C@H](O)[C@]3(C)[C@@H]([C@H](C)CCC(=O)OCC4CC4)CC[C@H]3[C@H]12", "assay-system": "G-protein coupled bile acid receptor 1 (Homo sapiens, UniProt Q8TDU6)", "u": "µM", "EC50": 14.1}
{"input-smiles": "CO[C@@H]1C[C@@H]2C[C@H](O)CC[C@]2(C)[C@H]2CC(=O)[C@]3(C)[C@@H]([C@H](C)CCC(=O)Oc4cccc5ccccc45)CC[C@H]3[C@H]12", "assay-system": "G-protein coupled bile acid receptor 1 (Homo sapiens, UniProt Q8TDU6)", "u": "µM", "EC50": 38}

// next item, EC50 requested
Ask: Return EC50 for the following compound: CO[C@@H]1C[C@@H]2C[C@H](O)CC[C@]2(C)[C@H]2CC(=O)[C@]3(C)[C@@H]([C@H](C)CCC(=O)OCC4CC4)CC[C@H]3[C@H]12
Result: 9.5
